# Test Target: Human recombinant PDE10A (hPDE10A) (Homo sapiens)
# Construct: His tag (inferred from metal chelate purification); made in house; host or cells: Sf9 insect cells (baculovirus)
# Assay Remarks: In vitro assay PDE10A, human clone (SPA, 3H-cAMP hydrolysis)
# Assay type: biochemical
# Test Settings: human clone by default (no (r) mark); read-out: hPDE10A2 or rPDE10A2 pIC50 (converted)
Measured Metric: IC50 (nM)
Numbers only, in nM.

Consider the worked cases shown below.
[
  {
    "Smiles Representation": "C[C@@H]1CCN(C(=O)c2ccc(C#N)cn2)C[C@H]1c1cc(C(F)F)nc2ncnn12",
    "Obs Value": 8710
  },
  {
    "Smiles Representation": "C[C@@H]1CCN(C(=O)c2cnc3ccccc3c2)C[C@H]1c1cc(C(F)F)nc2ncnn12",
    "Obs Value": 66.1
  }
]

Hey, quick one: what's IC50 for each of these?
1. C[C@@H]1CCN(C(=O)c2ccc3ncc(F)cc3c2)C[C@H]1c1cc(C(F)F)nc2ncnn12
2. COc1cc(C(=O)N2[C@H]3CC[C@H](c4cc(C(F)F)nc5ncnn45)[C@@H]2CC3)ccc1Cl
3. C[C@@H]1CCN(C(=O)c2cc(Cl)cc(Cl)c2)C[C@H]1c1cc(C(F)F)nc2ncnn12
4. C[C@@H]1CCN(C(=O)c2ccc3ncccc3c2)C[C@H]1c1cc(C(F)F)nc2ncnn12
5. Cc1cc(C(=O)N2[C@H]3CC[C@@H]2[C@H](c2cc(C(F)F)nc4ncnn24)CC3)cc(C2CC2)n1

[30.9, 1910, 100, 18.6, 6030]

Here are 6 compounds. What values of IC50 were reported for them?
1. Cc1cc(C(=O)N2CC[C@@H](C)[C@H](c3cc(C(F)F)nc4ncnn34)C2)cc(C)[n+]1[O-]
2. COc1nc(C2CC2)cc(C(=O)N2CC[C@@H](C)[C@H](c3cc(C(F)F)nc4ncnn34)C2)c1F
3. COc1ccc(C(=O)N2[C@H]3CC[C@H](c4cc(C(F)F)nc5ncnn45)[C@@H]2CC3)cc1OC
4. Cc1nc2ccc(C(=O)N3[C@H]4CC[C@H](c5cc(C(F)F)nc6ncnn56)[C@@H]3CC4)cc2o1
5. Cc1cc(C(=O)N2[C@H]3CC[C@H](c4cc(C(F)F)nc5ncnn45)[C@@H]2CC3)cc(F)c1F
6. Cc1cc([C@@H]2CC[C@@H]3CC[C@H]2N3C(=O)c2ccc3ncsc3c2)n2ncnc2n1

1480
166
1820
537
2570
5370

* * *

# Test Target: Human recombinant PDE10A (hPDE10A) (Homo sapiens, UniProt Q9Y233)
# Construct: His tag (inferred from metal chelate purification); made in house; host or cells: Sf9 insect cells (baculovirus)
# Sequence (Q9Y233 267-1055): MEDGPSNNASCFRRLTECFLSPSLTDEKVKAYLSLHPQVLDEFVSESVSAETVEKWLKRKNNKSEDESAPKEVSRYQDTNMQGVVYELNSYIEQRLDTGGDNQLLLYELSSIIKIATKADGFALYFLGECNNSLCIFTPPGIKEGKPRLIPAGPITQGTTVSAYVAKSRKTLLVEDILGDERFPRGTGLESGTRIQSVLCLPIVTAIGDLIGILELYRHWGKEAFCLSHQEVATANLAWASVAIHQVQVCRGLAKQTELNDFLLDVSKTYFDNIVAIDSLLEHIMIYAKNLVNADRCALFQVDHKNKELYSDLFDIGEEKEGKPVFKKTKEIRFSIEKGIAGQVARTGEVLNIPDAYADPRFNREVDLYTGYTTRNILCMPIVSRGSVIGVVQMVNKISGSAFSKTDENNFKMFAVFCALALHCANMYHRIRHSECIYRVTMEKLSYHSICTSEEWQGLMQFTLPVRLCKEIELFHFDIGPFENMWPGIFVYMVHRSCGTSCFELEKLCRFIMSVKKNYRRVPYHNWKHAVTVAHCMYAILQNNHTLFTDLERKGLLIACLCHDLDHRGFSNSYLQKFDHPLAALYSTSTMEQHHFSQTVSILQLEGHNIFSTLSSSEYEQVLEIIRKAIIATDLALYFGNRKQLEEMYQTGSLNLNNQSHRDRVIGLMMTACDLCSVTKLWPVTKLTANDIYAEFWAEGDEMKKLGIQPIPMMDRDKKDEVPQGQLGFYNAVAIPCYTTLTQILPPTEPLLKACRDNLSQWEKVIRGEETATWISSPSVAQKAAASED
# Assay Remarks: In vitro assay PDE10A, human clone (SPA, 3H-cAMP hydrolysis)
# Assay type: biochemical
# Test Settings: human clone (h), default; read-out: hPDE10A2 pIC50 (converted)
Measured Metric: IC50 (nM)
Give bare numbers, in nM.

[
  {
    "Smiles Representation": "C[C@@H]1CCN(C(=O)c2cc3ccccc3o2)C[C@H]1c1cc(C(F)F)nc2ncnn12",
    "Measured Metric": "IC50",
    "Obs Value": 45.7
  }
]

# per-item lookup of IC50; items listed below
1. C[C@@H]1CCN(C(=O)c2cnc(Cl)c(Cl)c2)C[C@H]1c1cc(C(F)F)nc2ncnn12
2. C[C@@H]1CCN(C(=O)c2cc(OC(F)F)cc(C3CC3)c2)C[C@H]1c1cc(C(F)F)nc2ncnn12
3. C[C@@H]1CCN(C(=O)c2cn(C)cn2)C[C@H]1c1cc(C(F)F)nc2ncnn12
4. C[C@@H]1CCN(C(=O)c2ccnc(Cl)c2)C[C@H]1c1cc(C(F)F)nc2ncnn12
5. Cc1cc([C@@H]2CN(C(=O)c3cnc4ccc(C(F)(F)F)cn34)CC[C@H]2C)n2ncnc2n1
6. C[C@@H]1CCN(C(=O)c2ccn(C)c2)C[C@H]1c1cc(C(F)F)nc2ncnn12
7. COc1ccc(C(=O)N2CC[C@@H](C)[C@H](c3cc(C(F)F)nc4ncnn34)C2)cc1C#N
8. Cc1cnc(Cl)cc1C(=O)N1CC[C@@H](C)[C@H](c2cc(C(F)F)nc3ncnn23)C1

355
22.4
4470
316
132
288
37.2
1100

# return IC50 for each item in the list
1. C[C@@H]1CCN(C(=O)c2ccc(F)cn2)C[C@H]1c1cc(C(F)F)nc2ncnn12
2. C[C@@H]1CCN(C(=O)c2ccncc2F)C[C@H]1c1cc(C(F)F)nc2ncnn12
3. C[C@@H]1CCN(C(=O)c2cc(C(C)(C)C)on2)C[C@H]1c1cc(C(F)F)nc2ncnn12

1: 8710; 2: 2950; 3: 1260
